test: NOD1 signaling inhibitors, primary screen, cell-based, luminescence, uHTS (AID 1578); conditions: NOD1-driven NF-kB luciferase reporter cells, at 4 µM, stronger effect = higher value;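 further: HEK-293T reporter cells stimulated with the NOD1 agonist gamma-tri-DAP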
Screen size: about 290,000 compounds; about 3,000 (1%) were called active. This is one part of a sample in which actives are shown more often than they occur.
MEASURED_ATTRIBUTE: inhibition

[
  {
    "COMPOUND": "CN(CCN1CCOCC1)Cc1nc(-c2cccs2)no1",
    "inhibition": "-22.4% (inactive)"
  },
  {
    "COMPOUND": "Cc1c(C)c2ccc(O)c(CN3CCN(C)CC3)c2oc1=O",
    "inhibition": "2% (inactive)"
  }
]

Input: # query: inhibition of entry CCC1CCCCN1S(=O)(=O)c1ccc(S(=O)(=O)N(Cc2cccs2)C2CC2)cc1 (stereo not drawn)
Output: 7.6% (inactive)

Input: # query: inhibition of entry `Cc1cnc(NC(=O)c2sc3ccccc3c2Cl)s1`
Output: 105% (active)

Input: # query: inhibition of entry `C=CCc1cc(Cl)ccc1OCCOCCNCCOC`
Output: -24.9% (inactive)

Input: # query: inhibition of entry `FC(F)(F)c1cc(Oc2ccc(Cl)cc2)ncc1-c1nnc(-c2ccc(Cl)cc2)o1`
Output: -6.5% (inactive)

Input: # query: inhibition of entry CCC(C)Sc1nc(O)c(Cc2ccccc2)c(=O)[nH]1 (stereo not drawn)
Output: 6.4% (inactive)

Input: # query: inhibition of entry `O=C(Nc1cccnc1)Nc1ccccc1Cl`
Output: -8.9% (inactive)

Input: # query: inhibition of entry `Cc1cc(NC(=O)Nc2ccc(Cl)cc2)n(C)n1`
Output: -7.2% (inactive)

Input: # query: inhibition of entry `O=C(Nc1cccnc1)Nc1cc(Cl)cc(Cl)c1`
Output: 76.8% (active)

Input: # query: inhibition of entry `C=CCc1cc(Cl)ccc1OCCNCCCOC`
Output: -15.8% (inactive)

Input: # query: inhibition of entry CC(C)C(NS(=O)(=O)c1cccc2nsnc12)C(=O)NC1CCCCC1 (stereo not drawn)
Output: -5.2% (inactive)

Input: # query: inhibition of entry `Clc1nccnc1-c1ccccc1`
Output: -25.1% (inactive)
